- TARGET: GST-FAK (N-terminal GST fusion with truncated human FAK (376-1052 (end) amino acids)) (Homo sapiens, UniProt Q05397)
- Construct: truncated human FAK (376-1052 (end) amino acids)
- Sequence (Q05397 376-1052): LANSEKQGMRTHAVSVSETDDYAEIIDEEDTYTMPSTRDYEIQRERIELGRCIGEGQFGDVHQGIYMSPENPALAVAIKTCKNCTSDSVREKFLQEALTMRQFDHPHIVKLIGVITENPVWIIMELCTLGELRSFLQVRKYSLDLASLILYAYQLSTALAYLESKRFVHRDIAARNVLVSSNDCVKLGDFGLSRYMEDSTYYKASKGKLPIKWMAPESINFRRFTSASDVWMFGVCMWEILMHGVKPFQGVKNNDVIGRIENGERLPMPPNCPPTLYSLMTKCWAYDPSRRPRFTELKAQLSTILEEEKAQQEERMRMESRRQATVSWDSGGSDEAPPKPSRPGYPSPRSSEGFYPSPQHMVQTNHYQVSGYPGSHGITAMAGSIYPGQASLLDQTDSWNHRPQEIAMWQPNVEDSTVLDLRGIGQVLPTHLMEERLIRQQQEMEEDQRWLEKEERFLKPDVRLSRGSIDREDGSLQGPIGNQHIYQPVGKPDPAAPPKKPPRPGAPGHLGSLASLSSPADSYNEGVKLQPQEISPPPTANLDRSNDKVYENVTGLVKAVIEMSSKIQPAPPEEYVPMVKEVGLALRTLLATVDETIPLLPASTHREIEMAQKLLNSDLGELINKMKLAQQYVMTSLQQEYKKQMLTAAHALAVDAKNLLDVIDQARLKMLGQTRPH
- EXPERIMENT SUMMARY: Biochemical enzyme assay for FAK activity (Caliper LC3000 mobility shift)
- CONDITION DESCRIPTION: Table 5; 100 uM ATP; read-out: FAK IC50
compounds and their reported IC50

Answered cases to consult:
{"columns": ["COMPOUND", "IC50"],
 "data": [
  ["Fc1ccc(CNc2ccnc(-c3cccnc3)n2)c(F)c1", "0.1 to 1 µM"],
  ["CN(c1ncccc1CNc1ccnc(-c2cncc(C(F)(F)F)c2)n1)S(C)(=O)=O", "1 to 10 µM"],
  ["CC(NC(=O)c1cc(NCc2ccc(F)cc2F)nc(-c2cncc(C(F)(F)F)c2)n1)C(N)=O (centres unmarked)", "< 0.1 µM"]
]}

INPUT: Answer with the recorded IC50 for the compound listed here: `COc1cncc(-c2nccc(NCc3ccccc3)n2)c1`
OUTPUT: 0.1 to 1 µM

INPUT: Answer with the recorded IC50 for the compound listed here: `Cn1cc(NC(=O)c2cc(NCc3ccc(F)cc3F)nc(-c3cncc(C(F)(F)F)c3)n2)cn1`
OUTPUT: 0.1 to 1 µM

INPUT: Answer with the recorded IC50 for the compound listed here: `Fc1ccc(CNc2nc(-c3cncc(C(F)(F)F)c3)nc3[nH]cnc23)c(F)c1`
OUTPUT: 0.1 to 1 µM

INPUT: Answer with the recorded IC50 for the compound listed here: `COc1cncc(-c2nccc(NCc3ccccn3)n2)c1`
OUTPUT: 0.1 to 1 µM

INPUT: Answer with the recorded IC50 for the compound listed here: `C[C@@H](Nc1ccnc(-c2cncc(C(F)(F)F)c2)n1)c1ccc(F)cc1`
OUTPUT: 0.1 to 1 µM
